Hey, just so you know, these numbers are from patent US20180369355A1.

Molecular target: T1, ClfACC (S. aureus, UniProt Q53653 229-545, engineered disulfide bond between C327 and C541)
T1 construct: also called disulfide bond-closed ClfACC; closed form of ClfA N2N3
T1 sequence: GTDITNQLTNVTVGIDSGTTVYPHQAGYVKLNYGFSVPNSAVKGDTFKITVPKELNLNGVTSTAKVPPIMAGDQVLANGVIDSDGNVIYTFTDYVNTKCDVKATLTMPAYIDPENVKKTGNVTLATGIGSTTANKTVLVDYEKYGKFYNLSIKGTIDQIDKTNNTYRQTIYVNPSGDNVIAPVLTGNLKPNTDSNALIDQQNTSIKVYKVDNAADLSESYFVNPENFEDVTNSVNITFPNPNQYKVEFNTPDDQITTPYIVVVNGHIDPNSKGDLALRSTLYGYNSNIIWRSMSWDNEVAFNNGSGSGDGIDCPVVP
Test: ITC, peptide titrated into ClfACC (paragraph 56 gives this KD as '9' without a unit and calls the peptide a synthetic C-terminal γ-chain peptide; the sheet names it P16)
readout-label: pKd
A value of pKd is the negative decimal logarithm of a concentration given in moles per litre.

Challenge: Sample GEGQQHHLGGAKQAGAV (domain: γ-peptide; Position 410 probably counts on the mature γ-chain; also called P16 peptide; Fg-γ P16 peptide) [Fg γ-peptide P16] — what was its pKd?
Response given: 5.05
